meta.source: ChEMBL document CHEMBL5291721

Assay target: B2 bradykinin receptor (Homo sapiens, UniProt P30411); note: assay procedure not described here
Sequence (P30411 whole entry): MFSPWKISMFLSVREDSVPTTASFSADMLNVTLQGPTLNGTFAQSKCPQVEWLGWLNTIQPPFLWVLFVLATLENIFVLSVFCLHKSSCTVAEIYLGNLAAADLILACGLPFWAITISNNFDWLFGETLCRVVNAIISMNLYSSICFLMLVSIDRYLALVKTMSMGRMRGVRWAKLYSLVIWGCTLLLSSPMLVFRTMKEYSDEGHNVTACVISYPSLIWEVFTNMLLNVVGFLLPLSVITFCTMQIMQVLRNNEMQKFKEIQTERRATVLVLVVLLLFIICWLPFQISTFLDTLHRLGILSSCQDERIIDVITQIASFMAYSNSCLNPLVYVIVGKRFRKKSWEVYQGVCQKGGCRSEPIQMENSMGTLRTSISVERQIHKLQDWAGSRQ
Parameter measured: AC50

q: Would you mind telling me what AC50 value was observed for COc1ccc(-c2ccc3cc(C(=O)O)ccc3c2)cc1C12CC3CC(CC(C3)C1)C2 ?
a: > 30 µM

q: Let us now turn to COc1ccccc1N1CCN(CCCNc2cc(=O)n(C)c(=O)n2C)CC1
a: > 30 µM

q: Let us now turn to NCC(=O)CCC(=O)O
a: > 30 µM

q: Let us now turn to C[C@H](CSC(=O)c1ccccc1)C(=O)N1C[C@@H](Sc2ccccc2)C[C@H]1C(=O)O
a: > 10 µM

q: Let us now turn to CCCCCNC(=N)N/N=C/c1c[nH]c2ccc(OC)cc12
a: > 30 µM

q: Let us now turn to CCC1(CC)C(=O)NCC(C)C1=O (centres undefined)
a: > 30 µM

q: Let us now turn to COC(=O)C1=C(C)NC(C)=C(C(=O)OC2CCCN(Cc3ccccc3)C2)C1c1cccc([N+](=O)[O-])c1 (centres undefined)
a: > 30 µM

q: Let us now turn to Cc1cccc(Nc2ccccc2C(=O)O)c1C
a: > 10 µM

q: Let us now turn to Clc1ccc(C(c2ccccc2Cl)C(Cl)Cl)cc1 (centres undefined)
a: > 10 µM

q: Let us now turn to O=C(O)CCCCCCCC(=O)O
a: > 10 µM

q: Let us now turn to Clc1ccc(CCCOCCCN2CCCCC2)cc1
a: > 30 µM

q: Let us now turn to CN1C(=O)OC(C)(C)C1=O
a: > 10 µM

q: Let us now turn to CCC(C)n1ncn(-c2ccc(N3CCN(c4ccc(OCC5COC(Cn6cncn6)(c6ccc(Cl)cc6Cl)O5)cc4)CC3)cc2)c1=O (centres undefined)
a: > 30 µM

q: Let us now turn to CCCCN1C[C@H](O)[C@@H](O)[C@H](O)[C@H]1CO
a: > 30 µM

q: Let us now turn to COC(=O)C1=C(C)NC(C)=C(C(=O)OC(C)(C)CN(C)CCC(c2ccccc2)c2ccccc2)C1c1cccc([N+](=O)[O-])c1 (centres undefined)
a: > 30 µM

q: Let us now turn to Clc1ccc2nsnc2c1NC1=NCCN1
a: > 30 µM
